Where do these numbers come from? They come from patent US20220275067A1.

- MEASURED_ON: human tau oligomers (human, UniProt P10636-6 2-383, limits assumed)
- Sequence (P10636 other isoform, or with tags, fused parts or gaps limits assumed): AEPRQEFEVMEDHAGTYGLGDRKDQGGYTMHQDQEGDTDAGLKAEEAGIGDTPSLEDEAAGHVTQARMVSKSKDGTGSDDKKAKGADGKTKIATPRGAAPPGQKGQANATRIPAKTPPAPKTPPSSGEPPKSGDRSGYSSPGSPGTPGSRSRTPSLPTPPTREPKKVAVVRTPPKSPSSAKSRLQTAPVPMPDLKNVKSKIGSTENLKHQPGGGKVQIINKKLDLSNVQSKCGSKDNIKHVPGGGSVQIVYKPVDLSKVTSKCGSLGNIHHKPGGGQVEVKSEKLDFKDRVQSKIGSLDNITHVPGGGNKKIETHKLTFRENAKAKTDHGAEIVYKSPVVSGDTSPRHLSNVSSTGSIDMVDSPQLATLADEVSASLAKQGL
- PROTOCOL_DESCRIPTION: cell-based or functional assay
MEASURE_NAME: LDH released by primary neurons with tau oligomers, antibody at 5 molar equivs

Item under review: mouse 10C12 antibody (antibody, mouse IgG2a, V domains shown, also called m10C12) VH: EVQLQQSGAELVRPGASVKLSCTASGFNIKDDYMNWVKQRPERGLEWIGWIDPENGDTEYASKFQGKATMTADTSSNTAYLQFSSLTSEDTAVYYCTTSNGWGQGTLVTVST VL: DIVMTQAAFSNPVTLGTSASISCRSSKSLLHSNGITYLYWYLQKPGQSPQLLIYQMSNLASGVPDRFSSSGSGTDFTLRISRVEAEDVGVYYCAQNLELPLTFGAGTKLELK . Reported LDH released by primary neurons with tau oligomers, antibody at 5 molar equivs?
95.1 % of control
